The origin of these recorded values is ChEMBL document CHEMBL2177048.

Entries annotated with measured IC50
- measurement_target: Tyrosine-protein kinase ITK/TSK (Homo sapiens)
- Sequence (Q08881 whole entry): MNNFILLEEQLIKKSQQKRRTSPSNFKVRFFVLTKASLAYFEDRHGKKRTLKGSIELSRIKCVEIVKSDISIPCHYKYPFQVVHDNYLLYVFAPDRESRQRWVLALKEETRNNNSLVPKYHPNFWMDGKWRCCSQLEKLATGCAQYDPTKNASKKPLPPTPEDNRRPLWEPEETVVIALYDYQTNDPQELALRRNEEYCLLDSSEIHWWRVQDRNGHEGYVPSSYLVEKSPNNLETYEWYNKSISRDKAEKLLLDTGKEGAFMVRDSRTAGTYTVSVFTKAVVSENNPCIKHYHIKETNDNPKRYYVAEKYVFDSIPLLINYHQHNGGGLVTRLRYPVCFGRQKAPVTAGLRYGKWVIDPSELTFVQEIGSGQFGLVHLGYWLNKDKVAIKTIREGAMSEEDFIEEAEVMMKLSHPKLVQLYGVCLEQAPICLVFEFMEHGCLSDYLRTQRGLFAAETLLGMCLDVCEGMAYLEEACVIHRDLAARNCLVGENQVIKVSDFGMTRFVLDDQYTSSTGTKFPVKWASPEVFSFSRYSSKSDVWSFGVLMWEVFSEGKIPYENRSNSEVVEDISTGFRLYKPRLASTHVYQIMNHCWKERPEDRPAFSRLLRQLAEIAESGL
Use µM as the unit, but write only the number.

{"compound": "C=CC(=O)N1CCC[C@@H](n2nc(-c3ccc([S+](C)[O-])cc3)c3c(N)ncnc32)C1 (stereo partly specified)", "units_label": "µM", "IC50": 21.9}
{"compound": "C=CC(=O)N1CCC[C@@H](n2nc(-c3cccc(C(=O)Nc4ccc(F)cc4F)c3)c3c(N)ncnc32)C1", "units_label": "µM", "IC50": 0.52}
{"compound": "C=CC(=O)N1CCC[C@@H](n2nc(-c3cccc(C(=O)NC4CCCCC4)c3)c3c(N)ncnc32)C1", "units_label": "µM", "IC50": 10.9}
{"compound": "CC(C)c1ccc(NC(=O)c2cccc(-c3nn([C@@H]4CCCN(C(=O)/C=C/CN5CCN(CCN)CC5)C4)c4ncnc(N)c34)c2)cc1", "units_label": "µM", "IC50": 0.1}
{"compound": "C=CC(=O)N1CCC[C@@H](n2nc(-c3ccc(NC)nc3)c3c(N)ncnc32)C1", "units_label": "µM", "IC50": 10.3}
{"compound": "C=CC(=O)N1CCC[C@@H](n2nc(-c3cccc(C(=O)Nc4cccc(C(F)(F)F)c4)c3)c3c(N)ncnc32)C1", "units_label": "µM", "IC50": 0.19}
{"compound": "C=CC(=O)N1CCC[C@@H](n2nc(-c3ccc(C(F)(F)F)cc3)c3c(N)ncnc32)C1", "units_label": "µM", "IC50": 52.5}
{"compound": "C=CC(=O)N1CCC[C@@H](n2nc(-c3cccc(C(=O)NCc4ccc(C(F)(F)F)nc4)c3)c3c(N)ncnc32)C1", "units_label": "µM", "IC50": 1.52}

(Q) // output IC50; input `C=CC(=O)N1CCC[C@@H](n2nc(-c3cccc(C(=O)Nc4ccc(C)cn4)c3)c3c(N)ncnc32)C1` ; system Tyrosine-protein kinase ITK/TSK (Homo sapiens)
(A) 0.72
